Values from ChEMBL document CHEMBL3603774

System: Aspergillus flavus
Test protocol: Antifungal activity against Aspergillus flavus MTCC 873 at 100 ug/ml after 24 hrs by disc diffusion method
Type: functional
Condition info: MTCC 873, 24 h, read-out: IZ
Entry flag: condition met if zone of inhibition at 100 µg/mL reaches 10 mm; condition not met if it does not.

Answered cases to consult:
Reported zone of inhibition at 100 µg/mL at or above 10 mm? CCOC(=O)c1c(-c2ccccc2)nn(-c2ccccc2)c1COc1cc(OC)c(C=O)c(OC)c1
condition met

Reported zone of inhibition at 100 µg/mL at or above 10 mm? CCOC(=O)c1c(-c2ccccc2)nn(-c2ccccc2)c1COCc1c(-c2ccc(F)cc2)nc(N(C)S(C)(=O)=O)nc1C(C)C
condition not met

Reported zone of inhibition at 100 µg/mL at or above 10 mm? CCOC(=O)c1c(-c2ccccc2)nn(-c2ccccc2)c1COc1ccc(C=O)cc1
condition not met

Reported zone of inhibition at 100 µg/mL at or above 10 mm? CCOC(=O)c1c(-c2ccccc2)nn(-c2ccccc2)c1Cn1c(S)nc2ccccc21
condition met

Reported zone of inhibition at 100 µg/mL at or above 10 mm? CCOC(=O)c1c(-c2ccccc2)nn(-c2ccccc2)c1Cn1c(Cl)nc2ccccc21
condition not met

Reported zone of inhibition at 100 µg/mL at or above 10 mm? CCOC(=O)c1c(-c2ccccc2)nn(-c2ccccc2)c1Cn1cnc2ccccc21
condition met

Continuing:
Reported zone of inhibition at 100 µg/mL at or above 10 mm? CCOC(=O)c1c(-c2ccccc2)nn(-c2ccccc2)c1Cn1cnc2cc(C)ccc21
condition met
